Target: truncated PI3Kα (p110α/iSH2 p85α) (Homo sapiens (Human), UniProt P42336)
Sequence (P42336 whole entry, the tested form may be a part): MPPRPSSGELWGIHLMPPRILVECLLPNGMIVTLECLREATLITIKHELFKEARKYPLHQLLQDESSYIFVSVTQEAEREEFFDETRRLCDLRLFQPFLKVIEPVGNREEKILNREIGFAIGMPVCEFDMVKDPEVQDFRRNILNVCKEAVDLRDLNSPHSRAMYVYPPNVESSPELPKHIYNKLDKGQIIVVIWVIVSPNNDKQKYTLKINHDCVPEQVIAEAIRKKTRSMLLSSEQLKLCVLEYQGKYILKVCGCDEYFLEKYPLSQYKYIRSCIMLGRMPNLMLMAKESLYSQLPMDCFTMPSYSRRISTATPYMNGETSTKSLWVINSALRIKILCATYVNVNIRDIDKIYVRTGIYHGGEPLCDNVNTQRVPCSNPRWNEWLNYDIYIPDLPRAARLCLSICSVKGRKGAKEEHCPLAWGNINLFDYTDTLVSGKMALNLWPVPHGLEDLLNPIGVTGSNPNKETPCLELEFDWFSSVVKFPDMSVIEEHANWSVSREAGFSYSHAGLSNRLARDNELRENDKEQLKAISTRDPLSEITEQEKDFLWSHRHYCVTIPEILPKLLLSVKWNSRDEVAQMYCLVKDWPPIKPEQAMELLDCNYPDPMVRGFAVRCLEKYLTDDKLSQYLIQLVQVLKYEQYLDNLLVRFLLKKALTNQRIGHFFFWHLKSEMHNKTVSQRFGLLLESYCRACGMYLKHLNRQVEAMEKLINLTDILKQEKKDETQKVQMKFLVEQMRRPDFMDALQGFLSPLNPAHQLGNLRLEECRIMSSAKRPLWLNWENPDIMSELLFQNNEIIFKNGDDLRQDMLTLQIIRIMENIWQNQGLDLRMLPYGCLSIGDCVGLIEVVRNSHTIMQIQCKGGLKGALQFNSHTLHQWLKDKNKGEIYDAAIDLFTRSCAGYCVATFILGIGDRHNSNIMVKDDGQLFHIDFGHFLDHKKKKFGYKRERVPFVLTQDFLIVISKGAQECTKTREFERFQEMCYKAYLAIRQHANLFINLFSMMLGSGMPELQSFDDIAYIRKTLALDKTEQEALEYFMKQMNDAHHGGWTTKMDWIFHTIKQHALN
Assay: PI3KA_Act fluorescence polarization kinase assay (Ki)
Assay type: biochemical
Settings: 1 mM ATP
Measured endpoint: PI3KA_Act Ki (pM)
Note: unit pM is implicit; provide only the numeric part.

Reference set (5 entries):
| Molecule | Value units | PI3KA_Act Ki |
| --- | --- | --- |
| C[C@H]1COCCN1c1nc(-c2cnc(N)nc2)c2c(n1)N([C@@]1(C)CCN(C(=O)[C@@H]3CCOC3)C1)CC2 [Example 499] | pM | 48 |
| CNS(=O)(=O)N(C)[C@H]1C[C@@H](N2CCc3c(-c4cnc(N)nc4)nc(N4CCOCC4)nc32)C1 [Example 57] | pM | 465 |
| CC(C)C(C)(C)N1CCc2c(-c3cnc(N)nc3)nc(N3CCOCC3)nc21 [Example 176] | pM | 462 |
| CNS(=O)(=O)N1CC(C)(N2CCc3c(-c4cnc(N)nc4)nc(N4CCOC[C@@H]4C)nc32)C1 [Example 220] | pM | 53 |
| C[C@H]1COCCN1c1nc(-c2cnc(N)nc2)c2c(n1)N([C@@]1(C)CCN(C(=O)C(C)(C)O)C1)CC2 [Example 473] | pM | 76 |

Quick note, PI3KA_Act Ki for C[C@]1(N2CCc3c(-c4cnc(N)nc4)nc(N4CCOCC4)nc32)CCN(C(=O)CN2CCC2)C1 [Example 325] landed at 58

Quick note, PI3KA_Act Ki for CC(C)(C)OC(=O)N1CC[C@H]1C(=O)N1CC[C@](C)(N2CCc3c(-c4cnc(N)nc4)nc(N4CCOCC4)nc32)C1 [Example 370] landed at 184

Quick note, PI3KA_Act Ki for CC1(N2CCc3c(-c4cnc(N)nc4)nc(N4CCOCC4)nc32)CN(S(=O)(=O)C2CC2)C1 [Example 197] landed at 40

Quick note, PI3KA_Act Ki for CC1(OC(=O)N2CC[C@](C)(N3CCc4c(-c5cnc(N)nc5)nc(N5CCOCC5)nc43)C2)CNC1.Cl [Example 414] landed at 39
